Biological target: T1, human PD-L1 (full-length, on cells) (human, UniProt Q9NZQ7 19-290)
T1 construct: whole, on cells; Expressed on CHO-s cells; also called human PD-L1-CHO; PD-L1-CHO
T1 sequence (Q9NZQ7 19-290): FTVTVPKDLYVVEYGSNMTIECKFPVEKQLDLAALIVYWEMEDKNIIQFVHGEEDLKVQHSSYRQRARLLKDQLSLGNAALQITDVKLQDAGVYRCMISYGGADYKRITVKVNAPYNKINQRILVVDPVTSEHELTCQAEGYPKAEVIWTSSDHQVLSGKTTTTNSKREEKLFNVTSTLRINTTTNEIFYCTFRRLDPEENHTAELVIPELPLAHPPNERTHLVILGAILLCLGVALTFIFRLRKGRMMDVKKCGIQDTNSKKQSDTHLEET
Assay: FACS on huPD-L1-CHOK cells
EC50 (read off the curve) values for the binders below.

# Binder, EC50 (read off the curve)
rows = [
    ("NB22D-21-4 VHH-Fc chimeric antibody protein (Fc fusion, not shown: human IgG1 Fc fragment, its N-terminus linked to the C-terminus of the VHH) EVQLVESGGGLVQPGGSLRLSCAASRTDRNINTMHWYRQAPGKGREWVGTIFIDLNTIVTDSVKGRFTISRDNAKNTLYLQMNTLRAEDTAVYYCAADVSGYGRAWGQGTTVTVSS", "~0.2 µg/mL"),
    ("NB22D-21-45-106 (Fc fusion, not shown: 'full-length antibodies' were constructed) EVQLVESGGGLVQPGGSLRLSCAASRRWSNIHGMHWYRQAPGKGREWVGSRFITGNTIVTDSVKGRFTISRDNAKNTLYLQMNTLRAEDTAVYYCAADVRGYGRAWGQGTTVTVSS", "~0.2 µg/mL"),
]

Shifting focus to the binder that follows.
Form field EC50 (read off the curve), entry NB22D-21-154 (Fc fusion, not shown: 'full-length antibodies' were constructed) EVQLVESGGGLVQPGGSLRLSCAASRTASNAMGMHWYRQAPGKGREWVGMIFRDGNTIVTDSVKGRFTISRDNAKNTLYLQMNTLRAEDTAVYYCAADVRGYGRAWGQGTTVTVSS : ~0.2 µg/mL
